Reference source: paper PMC8345219

Consider the following compounds; for each one, report its half-life.
Experiment: Investigation of plasma stability (Tam-labeled peptides, RP-HPLC)
Assay type: in vitro ADME
Details: Tam-modified peptides, 10^−5 M in human blood plasma, 37 °C; one-phase decay
Where a SMILES comes first, the peptide text is derived from it. Bridges are numbered along the chain shown (N, C = ends). [ ]: non-standard residue; d: D form. The star is where a group is joined. X1 = CN(C)c1ccc2c(c1)Oc1cc(N(C)C)ccc1C21OC(=O)c2ccc(C(=O)*)cc21

[
  {
    "Compound": "C[C@@H]1NC(=O)[C@H](Cc2ccccc2)NC(=O)[C@H](CCC(N)=O)NC(=O)[C@H](NC(=O)[C@@H]2CCCN2C(=O)[C@H](Cc2ccccc2)NC(=O)[C@H](Cc2ccc(O)cc2)NC(=O)c2ccc3c(c2)C2(OC3=O)c3ccc(N(C)C)cc3Oc3cc(N(C)C)ccc32)CSSC[C@@H](C(=O)O)NC(=O)[C@H](Cc2ccccc2)NC1=O [Compound 4T, Tam-YFP(cQFAFC)] (X1-YFP[dC]QFAFC-OH; disulfide 4-9)",
    "half-life": "> 24 h"
  }
]

Give half-life for each listed item.
1. CN(C)c1ccc2c(c1)Oc1cc(N(C)C)ccc1C21OC(=O)c2ccc(C(=O)NCCCC[C@@H]3NC(=O)[C@H](Cc4ccccc4)NC(=O)[C@H](CCC(N)=O)NC(=O)[C@H](NC(=O)[C@@H]4CCCN4C(=O)[C@H](Cc4ccccc4)NC(=O)[C@H](N)Cc4ccc(O)cc4)CSSC[C@@H](C(=O)O)NC(=O)[C@H](Cc4ccccc4)NC3=O)cc21 [Compound 8T, yFP(cQFK(Tam)FC)] (H-[dY]FP[dC]QFK(X1)FC-OH; disulfide 4-9)
2. CN(C)c1ccc2c(c1)Oc1cc(N(C)C)ccc1C21OC(=O)c2ccc(C(=O)N[C@@H](Cc3ccc(O)cc3)C(=O)N[C@@H](Cc3ccccc3)C(=O)N3CCC[C@H]3C(=O)N[C@@H]3CSSC[C@@H](C(=O)N[C@@H](Cc4ccccc4)C(=O)N[C@@H](CO)C(=O)O)NC(=O)[C@H](Cc4ccccc4)NC(=O)[C@H](CCC(N)=O)NC3=O)cc21 [Compound 2T, Tam-YFP(cQFCFS)] (X1-YFP[dC]QFCFS-OH; disulfide 4-7)

### Response
1: > 24 h; 2: 0.75 h
